These data points were gathered from patent US20250171463A1.

Tested target: EBP (Homo sapiens)
Construct: HEK293T cells were utilized as the source of EBP enzyme; endogenous in cells
Sequence (Q15125 whole entry): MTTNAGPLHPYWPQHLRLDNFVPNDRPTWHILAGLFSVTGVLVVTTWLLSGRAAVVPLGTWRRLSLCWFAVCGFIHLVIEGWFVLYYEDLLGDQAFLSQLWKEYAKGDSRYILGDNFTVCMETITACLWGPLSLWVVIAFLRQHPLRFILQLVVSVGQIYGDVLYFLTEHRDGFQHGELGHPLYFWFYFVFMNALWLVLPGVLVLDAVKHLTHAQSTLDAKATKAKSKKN
Test summary: EBP Functional Assay (EBP immunoaffinity LC-MS assay)
Details: EBP enzyme from HEK293T cells; 30 min with inhibitor, then zymosterol-d5, 37° C., 4 h; percent conversion to dehydrolathosterol-d5 by LC-APCI MRM MS
For each entry below, report its IC50 value.

# example entries with known answers
{"Compound": "Cc1nc(C(C)(F)F)ccc1S(=O)(=O)N1CC2(CN(CC3COC3)C2)C1", "IC50": "< 100 nM"}
{"Compound": "CC1(O)CCC(N2CC3(C2)CN(S(=O)(=O)c2cnc(C(F)(F)F)cc2C2CC2)C3)CC1 (single isomer, unassigned) [Example 123]", "IC50": "100 to 250 nM"}
{"Compound": "Cc1nc(C(C)(F)F)ccc1S(=O)(=O)N1CC2(CN(CC3CC4(COC4)C3)C2)C1", "IC50": "< 100 nM"}

Each compound below has a recorded value; state its IC50.
1. Cc1nc(C(F)(F)F)ccc1S(=O)(=O)N1CC2(C1)CN([C@H]1C[C@@]3(CCO3)C1)C2
2. O=S(=O)(c1ccc(F)cc1F)N1CCOC2(CCN(C3CCOCC3)C2)C1 (centres unmarked)
3. Cc1nc(C(C)(F)F)ccc1S(=O)(=O)N1CC2(CN(C3CCOC3)C2)C1 (centres unmarked)
4. Cc1nc(C(F)(F)F)ccc1S(=O)(=O)N1CC2(CN(C(C)C3CCOCC3)C2)C1 (single isomer, unassigned) [Example 156]
5. O=S(=O)(c1ccc(OC(F)F)cc1)N1CC2(CCN(C3CCOCC3)C2)C1

Result:
100 to 250 nM
250 to 4000 nM
250 to 4000 nM
< 100 nM
100 to 250 nM

Each compound below has a recorded value; state its IC50.
1. CC(C)(O)CN1CCC2(CC1)CN(S(=O)(=O)c1ccc(OC(F)F)cc1)CCO2
2. Cc1nc(C(F)(F)F)ccc1S(=O)(=O)N1CCC2(CCN(C3CCOCC3)C2)CC1
3. O=S(=O)(c1cnc(C(F)(F)F)cc1C1CC1)N1CC2(CN(CC3CCOCC3)C2)C1
4. Cc1nc(C(F)(F)F)ccc1S(=O)(=O)N1CC2(C1)CN([C@H]1C[C@]3(CCO3)C1)C2
5. O=S(=O)(c1ccc(C(F)(F)F)nc1C(F)(F)F)N1CC2(CN(C3CCOCC3)C2)C1
6. Cc1ccc(S(=O)(=O)N2CCC3(CC2)CN(CC2(O)CCOCC2)C3)c(C)c1
7. COc1cc(C)c(S(=O)(=O)N2CC3(CN(C4CCOCC4)C3)C2)cn1

Result:
["250 to 4000 nM", "< 100 nM", "< 100 nM", "< 100 nM", "250 to 4000 nM", "< 100 nM", "250 to 4000 nM"]

Each compound below has a recorded value; state its IC50.
1. Cn1nc(C(F)(F)F)cc1S(=O)(=O)N1CCC2(CCN(C3CCOCC3)C2)CC1
2. Cc1cc(C)c(S(=O)(=O)N2CC3(CCN(C4CCOCC4)C3)C2)cn1
3. N#Cc1cc(C(F)(F)F)ccc1S(=O)(=O)N1CC2(CN(CC3CCOCC3)C2)C1
4. Cc1cc(C(F)(F)F)ncc1S(=O)(=O)N1CC2(CN(C3CCOCC3)C2)C1
5. O=S(=O)(c1ccc(OC(F)F)cc1)N1[C@@H]2CC[C@H]1CC1(C2)CN(C2CCOCC2)C1
6. O=S(=O)(c1ccc(OC(F)F)cc1F)N1CC2(CN(CC3CCOCC3)C2)C1
7. O=S(=O)(c1ccc(OC(F)F)cc1F)N1CC2(CN(C3CCOCC3)C2)C1
8. O=S(=O)(c1ccc(OC(F)F)cc1)N1CCOC2(CCN(CC3COC3)C2)C1 (centres unmarked)

Result:
1. < 100 nM
2. < 100 nM
3. 250 to 4000 nM
4. 100 to 250 nM
5. 100 to 250 nM
6. 250 to 4000 nM
7. 100 to 250 nM
8. 250 to 4000 nM

Each compound below has a recorded value; state its IC50.
1. Cc1cc(C(F)(F)F)nc(C)c1S(=O)(=O)N1CC2(CN(C3CCOCC3)C2)C1
2. Cc1nc(C(C)(F)F)ccc1S(=O)(=O)N1CC2(CN(C3CCOCC3)C2)C1
3. CC1(O)CCC(N2CC3(C2)CN(S(=O)(=O)c2ccc(C(F)(F)F)nc2C2CC2)C3)CC1 (centres unmarked) [Example 196]
4. Cn1nc(C(F)(F)F)cc1S(=O)(=O)N1CC2(CN(CC3COC3)C2)C1
5. COc1ncc(C)cc1S(=O)(=O)N1CCOC2(CCN(C3CCOCC3)C2)C1 (centres unmarked)

Result:
< 100 nM
< 100 nM
100 to 250 nM
100 to 250 nM
250 to 4000 nM

Each compound below has a recorded value; state its IC50.
1. Cn1nc(C(F)(F)F)cc1S(=O)(=O)N1CC2(CN(CC3CCOCC3)C2)C1
2. COC(C)(C)CN1CC2(C[C@H]3CC[C@@H](C2)N3S(=O)(=O)c2ccc(OC(F)F)cc2)C1
3. Cc1nc(C(F)F)ccc1S(=O)(=O)N1CC2(CN(C3CC4(COC4)C3)C2)C1
4. Cn1nc(C(F)(F)F)cc1S(=O)(=O)N1CC2(CN(C3(C)CCOCC3)C2)C1

Result:
1. < 100 nM
2. 100 to 250 nM
3. 250 to 4000 nM
4. < 100 nM
